Field: logP. Provide a value for each of the compounds that follow.
Assay: log P determination by 19F NMR shake-flask method with internal fluorinated reference (octanol/water)
Conditions: octanol/water, Average logP, 25 °C; reference FE (-0.75)
Give bare numbers.

>  <Smiles String>
OC[C@@H](F)[C@@H](F)CO

>  <Reported Result>
-0.97

$$$$

# evaluate next
Which measured logP value corresponds to "OC[C@H](F)[C@@H](F)CO" ? -1.01

###

Test: physchem
Settings: logP, octanol/water, 19F NMR, 25 °C, average value
Assay Readout: logP
One number for each entry.

>  <Smiles String>
OC(CF)CF

>  <logP>
-0.42

$$$$

# evaluate next
Which measured logP value corresponds to "OCCCCF" ? 0.09

###

Test: log P determination by 19F NMR shake-flask method with internal fluorinated reference (octanol/water)
Settings: octanol/water, Average logP, 25 °C; reference TFE (+0.36)
Assay Readout: logP
Answers are plain numbers.

Below, 5 compounds whose answers are already recorded.
>  <Compound>
OC[C@H]1OC(O)C(F)(F)C(F)(F)[C@H]1O (stereo partly drawn)

>  <logP>
-0.58

$$$$
>  <Compound>
C[C@H](O)C[C@@H](C)F

>  <logP>
0.48

$$$$
>  <Compound>
CC(O)C(F)(F)F (stereo not drawn)

>  <logP>
0.71

$$$$
>  <Compound>
C[C@H](O)C[C@H](C)F

>  <logP>
0.57

$$$$
>  <Compound>
OCC(F)(F)C(F)(F)F

>  <logP>
1.2

$$$$

Kindly give each listed record's logP.
1. CC(F)(F)CO
2. CC(F)CCCO (stereo not drawn)
3. OC(C(F)(F)F)C(F)(F)F
4. CC(C)(O)C(F)(F)F

[0.11, 0.52, 1.69, 1.03]

Kindly give each listed record's logP.
1. CC(O)CC(F)F (stereo not drawn)
2. CC(O)CC(F)(F)F (stereo not drawn)
3. OC[C@H]1OC(O)C(F)(F)C(F)(F)[C@@H]1O (stereo partly drawn)

1: 0.42; 2: 0.72; 3: -0.32

###

Assay: log P determination by 19F NMR shake-flask method with internal fluorinated reference (octanol/water)
Conditions: octanol/water, error (mean logP to three decimals), reference TB (+0.91EXP)
Assay Readout: logP
Give bare numbers.

>  <Smiles String>
CC[C@H](O)C[C@H](F)CC

>  <logP>
1.58

$$$$

Which measured logP value corresponds to "CC[C@H](O)C[C@@H](F)CC" ? 1.71

###

Assay: log P determination by 19F NMR shake-flask method with internal fluorinated reference (octanol/water)
Settings: octanol/water, average logP, mA 120.0 mg, mREF 60.0 mg
Assay Readout: logP
One number for each entry.

Which measured logP value corresponds to "OCC(F)(F)C(F)(F)F" ? 1.18

###

Assay: log P determination by 19F NMR shake-flask method with internal fluorinated reference (octanol/water)
Settings: octanol/water, logP, 19F NMR, 25 °C, average value
Assay Readout: logP
Numbers only.

Below, 5 molecules whose answers are already recorded.
>  <Molecule>
OCCCCC(F)(F)F [compound 35]

>  <logP>
1.22

$$$$
>  <Molecule>
OC[C@H]1OC(O)C[C@@H](F)[C@@H]1O (stereo partly drawn) [compound 51, 2,3-Dideoxy-3-fluoro-D-glucopyranose]

>  <logP>
-1.45

$$$$
>  <Molecule>
CC(C)(C)[C@H]1CC[C@@H](O)[C@H](F)C1 (relative stereo) [compound 44]

>  <logP>
3.21

$$$$
>  <Molecule>
OCCCC(F)(F)F [compound 23, 4,4,4-trifluoro-1-butanol]

>  <logP>
0.91

$$$$
>  <Molecule>
CC(F)(F)CO [compound 11]

>  <logP>
0.11

$$$$

Kindly give each listed record's logP.
1. CC(C)(C)[C@H]1CC[C@H](O)[C@H](F)C1 (relative stereo) [compound 42]
2. CC(C)(C)C1CCC(O)CC1F (stereo not shown) [compound 45]
3. O=C[C@H](F)[C@@H](O)[C@@H](O)[C@H](O)CO [compound 47, 2-Fluoro-2-deoxy-D-galactose]
4. CC(O)CC(F)(F)F (stereo not shown) [compound 18]
5. OCC(F)(F)C(F)(F)F [compound 13, CF3CF2CH2OH]

[2.63, 2.23, -2.37, 0.71, 1.2]
